- Tested on: Collinsella aerofaciens
- assay-protocol: growth AUC relative to DMSO control (median of replicates) (fraction); higher = more growth (less inhibition), active = hit call of the paper
- condition: 20 µM; 24 h
measured-parameter: growth AUC

Clc1ccc(Sc2cc(Cl)c(Cl)cc2Cl)cc1	0.936
[S]	0.946
O=C(NC(=O)c1c(F)cccc1F)Nc1cc(C(F)(F)F)cc(C(F)(F)F)c1Cl	1.02
CC(C)OC(=O)N[C@H](C(=O)N[C@H](C)c1nc2ccc(F)cc2s1)C(C)C	0.964
CC1(C)C(C(=O)OC(C#N)c2cccc(Oc3ccccc3)c2)C1C(Br)C(Br)(Br)Br (stereo not drawn)	0.939
Oc1ccc2nc(-c3cscn3)[nH]c2c1	1.01
N#CC(=NOCC1OCCO1)c1ccccc1	0.936
CCc1cccc(C)c1NC(=O)C(=O)O	0.983

----------
- Test system: Bacteroides clarus
- assay-protocol: growth AUC relative to DMSO control (median of replicates) (fraction); higher = more growth (less inhibition), active = hit call of the paper;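 active = AUC reduced over 20% with Padj below 0.05 in at least 2 of 3 replicates; inactive = otherwise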
- condition: 20 µM; 24 h
Outcomes: active, inactive

O=S(Cc1ccc(Cl)cc1)c1ccc(Cl)cc1 (configuration not stated)	inactive
C=CCc1ccc(OC)c(OC)c1	inactive
COc1nc(C)nc(NC(=O)NS(=O)(=O)c2ccccc2OCCCl)n1	inactive
CCCCC(CC)CN1C(=O)C2C(C1=O)[C@H]1C=C[C@@H]2C1 (mixture of isomers)	inactive
N[C@@H](Cc1cc(I)c(Oc2cc(I)c(O)c(I)c2)c(I)c1)C(=O)O	inactive
NC1=C(Cl)C(=O)c2ccccc2C1=O	active
O=c1cccc2n1CCn1c-2cccc1=O	inactive
COC(=O)CCCOc1ccc(Cl)cc1Cl	inactive
O=c1cc(Cl)[nH]nc1-c1ccccc1	inactive
CSc1nc(NC2CC2)nc(NC(C)(C)C)n1	inactive
c1ccc2cc3ccccc3cc2c1	inactive
N#CC(=NOCC1OCCO1)c1ccccc1	inactive
CCOC(=O)c1ccc(O)cc1	inactive
COC(=O)C(C)Oc1ccc(Oc2ccc(C(F)(F)F)cn2)cc1 (configuration not stated)	inactive
Oc1ccc2ccccc2c1N=Nc1ccccc1	inactive
CCOC(=O)/C(Cl)=C/c1cc(N2C(=O)C3=C(CCCC3)C2=O)ccc1Cl	inactive
O=C(Nc1ccc(F)cc1-c1ccc(Cl)c(Cl)c1)c1cn[nH]c1C(F)F	active
CC(C)C1C2CCC1c1c(NC(=O)c3cn(C)nc3C(F)F)cccc12 (configuration not stated)	inactive
CC(C)(NC(=O)NCc1ccccc1Cl)c1ccccc1	inactive
Clc1ccc(CSc2ccc(Cl)cc2)cc1	inactive
NS(=O)(=O)[O-].[NH4+]	inactive
CCOC(=O)[C@@H](C)Oc1ccc(Oc2cnc3cc(Cl)ccc3n2)cc1	inactive
CN(C)C(=O)Nc1ccc(Cl)c(Cl)c1	inactive
CON=C(Cc1cccnc1)c1ccc(Cl)cc1Cl	inactive
CCCCCCCC(=O)Oc1c(Br)cc(C#N)cc1Br	inactive
CCOc1nc(F)cc2nc(S(=O)(=O)Nc3c(Cl)cccc3C(=O)OC)nn12	inactive
CCOC(=O)C1=NN(c2ccc(Cl)cc2Cl)C(C)(C(=O)OCC)C1 (configuration not stated)	inactive
O=C=NC1CCC(CC2CCC(N=C=O)CC2)CC1 (configuration not stated)	inactive
O=[N+]([O-])c1ccc2c(c1)Cc1ccccc1-2	inactive
O.O=C(Nc1ccc(Cl)c(Cl)c1)Nc1cc(Cl)ccc1Oc1ccc(Cl)cc1S(=O)(=O)[O-].[Na+]	active
O=S(=O)(Cc1ccc(Cl)cc1)c1ccc(Cl)cc1	inactive
CCCOC(=O)NCCCN(C)C	inactive
CNC(=O)/C(=N/OC)c1ccccc1COc1cc(C)ccc1C	inactive
CCCCOCCOCCOCc1cc2c(cc1CCC)OCO2	inactive
NC(=O)c1nn(-c2c(Cl)cc(C(F)(F)F)cc2Cl)c(N)c1S(=O)C(F)(F)F (configuration not stated)	inactive
O=C(NCc1ncc(C(F)(F)F)cc1Cl)c1c(Cl)cccc1Cl	inactive
CCC(C)c1cc([N+](=O)[O-])cc([N+](=O)[O-])c1OC(=O)OC(C)C (configuration not stated)	inactive

----------
- Test system: Bacteroides thetaiotaomicron
- assay-protocol: growth AUC relative to DMSO control (median of replicates) (fraction); higher = more growth (less inhibition), active = hit call of the paper;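 active = AUC reduced over 20% with Padj below 0.05 in at least 2 of 3 replicates; inactive = otherwise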
- condition: 20 µM; 24 h
Outcomes: active, inactive

CCCCCCCCOC(=O)COc1cc(Cl)c(Cl)cc1Cl	inactive
CC(C)CCCCCOC(=O)C(C)Oc1ccc(Cl)cc1Cl (centres undefined)	inactive
CCS(=O)(=O)c1nnc(N(C)C(=O)NC)s1	inactive
COC(=O)C(Cl)Cc1ccc(Cl)cc1 (centres undefined)	inactive
COC(=O)C(C)Oc1cc(Cl)c(Cl)cc1Cl (centres undefined)	inactive
CCNc1nc(N)nc(Cl)n1	inactive
CCN(Cc1c(F)cccc1Cl)c1c([N+](=O)[O-])cc(C(F)(F)F)cc1[N+](=O)[O-]	inactive
CC(C)(c1cc(Br)c(O)c(Br)c1)c1cc(Br)c(O)c(Br)c1	active
NC(=O)c1c(Cl)cccc1Cl	inactive
C=C1C[C@]23C[C@@]1(O)CC[C@H]2[C@@]12C=C[C@H](O)[C@@](C)(C(=O)O1)[C@H]2[C@@H]3C(=O)O	inactive
CCC/C(=N\OCC(C)Oc1ccc(Cl)cc1)C1=C(O)CC(C2CCCSC2)CC1=O (centres undefined)	inactive
CC(C)OC(=O)N[C@H](C(=O)N[C@H](C)c1nc2ccc(F)cc2s1)C(C)C	inactive
O=C(Nc1ccc(F)cc1-c1ccc(Cl)c(Cl)c1)c1cn[nH]c1C(F)F	active
Oc1c(Cl)cc(Cl)c(Cl)c1Cc1c(O)c(Cl)cc(Cl)c1Cl	active

----------
Each record here notes measured growth AUC.
- System: Bacteroides caccae
- assay-protocol: growth AUC relative to DMSO control (median of replicates) (fraction); higher = more growth (less inhibition), active = hit call of the paper
- condition: 20 µM; 24 h
measured-parameter: growth AUC

CC(C)CNC(=O)N1CCNC1=O	0.975 (inactive)
c1ccc(CNc2ncnc3nc[nH]c23)cc1	1.02 (inactive)
CC(=O)CC(c1ccccc1)c1c(O)c2ccccc2oc1=O (stereo not given)	1.01 (inactive)
CCc1ccc(O)cc1	0.884 (inactive)
O=S(=O)(Oc1ccc(Cl)cc1)c1ccccc1	0.959 (inactive)
O=C(NCc1ncc(C(F)(F)F)cc1Cl)c1c(Cl)cccc1Cl	0.973 (inactive)
CC(C)(C)C(O)/C(=C\c1ccc(Cl)cc1)n1cncn1 (stereo not given)	0.903 (inactive)
O.O=C(Nc1ccc(Cl)c(Cl)c1)Nc1cc(Cl)ccc1Oc1ccc(Cl)cc1S(=O)(=O)[O-].[Na+]	0.906 (inactive)
C[C@@]1(c2ccccc2)NC(=O)N(Nc2ccccc2)C1=O	1.04 (inactive)
CC(C)N(C(=O)CS(=O)CC(=O)O)c1ccc(F)cc1 (stereo not given)	0.965 (inactive)
CCOc1ccc(NC(=O)OC(C)C)cc1OCC	0.95 (inactive)
Oc1ccccc1O	1.02 (inactive)
Oc1ccccc1	0.963 (inactive)
N#Cc1cc(Cl)c(O)c(Cl)c1	1 (inactive)
C=CCc1ccc(O)c(OC)c1	0.993 (inactive)
Cc1cc(C2CC2)nc(Nc2ccc(O)cc2)n1	0.999 (inactive)
COC(=O)[C@@H](C)Oc1ccc(Oc2ncc(C(F)(F)F)cc2Cl)cc1	0.831 (inactive)
CN(C)C(=O)Nc1cc(C(C)(C)C)on1	1.01 (inactive)
CCN(CC)C(=O)c1cccc(C)c1	0.985 (inactive)
Cc1nn(C)c(F)c1C(=O)Nc1ccccc1C(C)CC(C)C (stereo not given)	0.97 (inactive)
Oc1ccc2nc(-c3cscn3)[nH]c2c1	1.07 (inactive)
COC(=O)C(C)Oc1ccc(Cl)cc1Cl (stereo not given)	1.05 (inactive)
COc1ccc(Cl)c(Cl)c1Cl	1.03 (inactive)
O=C(O)COc1cccc(Cl)c1Cl	0.947 (inactive)
Nc1ccc(S(=O)(=O)Nc2cnc3ccccc3n2)cc1	1.01 (inactive)
CC(C)(SC(=O)N1CCCCC1)c1ccccc1	0.973 (inactive)
Nc1cccc(O)c1	1.03 (inactive)
CCCCCCCCSCCO	0.954 (inactive)
c1ccc2c(c1)-c1cccc3c1c-2cc1ccccc13	1.05 (inactive)
CCC([O-])=C1C(=O)CC(C(=O)[O-])CC1=O.[Ca+2] (stereo not given)	1 (inactive)
COCCN(C(=O)CO)c1c(C)cccc1C(=O)O	0.963 (inactive)
CCNc1nc(N)[nH]c(=O)n1	1.01 (inactive)
CN(C)c1ccc(N=NS(=O)(=O)[O-])cc1.[Na+]	1.02 (inactive)
C#CCN(C)c1c(C#N)cnn1-c1nn2c(c1Cl)CCCC2	0.935 (inactive)
CC(C)c1cccc2c(=O)c3ccccc3sc12	0.922 (inactive)
CCCCCCCCOC(=O)COc1cc(Cl)c(Cl)cc1Cl	0.98 (inactive)
CC1(C)C(=O)Oc2ccc(OS(C)(=O)=O)cc21	1.05 (inactive)
CC(C)NS(=O)(=O)NC(=O)c1cc(NC(N)=O)c(F)cc1Cl	1 (inactive)
O=C(Nc1ccc(O)cc1-c1ccc(Cl)cc1)c1cccnc1Cl	1.02 (inactive)
COC(=O)CSc1cc(N=c2sc(=O)n3n2CCCC3)c(F)cc1Cl	1 (inactive)

Data provenance is the supplement of paper PMC12669032.
